Tested on: MRSA COL (NRS100)
TEST_SUMMARY: MIC, broth micro-dilution technique (CLSI)
Format: cell-based, Staphylococcus aureus
TEST_PARAMETERS: Staphylococcus aureus, 22 h, read-out: MIC (μg/mL) (COL)
Experimental: In vitro antimicrobial activity of each compound was determined by measuring minimal inhibitor concentrations (MICs) using the broth micro-dilution technique as approved by the Clinical and Laboratory Standards Institute (CLSI) (Methods for Dilution Antimicrobial Susceptibility Tests for Bacteria that Grow Aerobically; Approved Standard—Eighth Edition. CLSI document M07-A8. Wayne, Pa.: Clinical and Laboratory Standards; 2009). […]
PROPERTY: MIC (µg/mL)
State the answer as a number, implicitly in µg/mL.

C[C@@H]1NC(=O)[C@@H](N(C)C(=O)[C@H](CCCCN)NC(=O)c2ccc(-c3ccc(Cl)cc3)cc2)c2ccc(OCCN)c(c2)-c2cc(ccc2O)C[C@@H](C(=O)O)NC1=O [Compound 312] | 3
C[C@H](NC(=O)[C@@H]1Cc2ccc(O)c(c2)-c2cc(ccc2O)[C@H](N(C)C(=O)[C@H](CCCCN)NC(=O)c2ccc(-c3ccc(Cl)cc3)cc2)C(=O)N[C@@H](C)C(=O)N1)C(=O)CN=[N+]=[N-] [Compound 255] | 3

QUERY: Answer with MIC of CCCCCCCCCCS(=O)(=O)N[C@@H](CCCCN)C(=O)N(C)[C@@H]1C(=O)N[C@@H](C)C(=O)N[C@H](C(=O)O)Cc2ccc(O)c(c2)-c2cc1ccc2O [Compound 222] measured for MRSA COL (NRS100).
RESULT: 3

###

Tested on: Methicillin Resistant Staphylococcus aureus strain USA 300 (NRS384)
TEST_SUMMARY: MIC, broth micro-dilution technique (CLSI)
Format: cell-based
TEST_PARAMETERS: Staphylococcus aureus, 22 h, read-out: MIC (μg/mL) S. aureus
// MIC lookup, one value per entry

The examples below pair each entry with its known result.
CC(=O)[C@H](C)NC(=O)[C@@H]1Cc2ccc(OCCO)c(c2)-c2cc(ccc2OCCN)[C@H](N(C)C(=O)[C@H](CCCCN)NC(=O)c2ccc(-c3ccc(Cl)cc3)cc2)C(=O)N[C@@H](C)C(=O)N1 | 3 µg/mL
C[C@H](NC(=O)[C@@H]1Cc2ccc(O)c(c2)-c2cc(ccc2O)[C@H](N(C)C(=O)[C@H](CCCCN)NC(=O)c2ccc(-c3ccc(Cl)cc3)cc2)C(=O)N[C@@H](C)C(=O)N1)C(=O)CNS(C)(=O)=O | 8 µg/mL
CCCCc1ccc(-c2ccc(C(=O)N[C@@H](CCCCN)C(=O)N(C)[C@@H]3C(=O)N[C@@H](C)C(=O)N[C@H](C(=O)O)Cc4ccc(OCCN)c(c4)-c4cc3ccc4OCCN)cc2)cc1 | 0.15 µg/mL

Next, consider the following molecule.
QUERY: Output MIC of `C[C@@H]1NC(=O)[C@@H](N(C)C(=O)[C@H](CCCCN)NC(=O)c2ccc(-c3ccc(Cl)cc3)cc2)c2ccc(O)c(c2)-c2cc(ccc2O)C[C@@H](C(=O)N[C@@H](C)/C=C/S(N)(=O)=O)NC1=O`
RESULT: 32 µg/mL

###

Test system: MRSA COL (NRS100)
TEST_SUMMARY: MIC, broth micro-dilution technique (CLSI)
Assay type: cell-based, Staphylococcus aureus
TEST_PARAMETERS: Table 2 modified protocol: serial 2-fold dilutions starting from 4 μg/mL; 35° C., 22 hours
PROPERTY: MIC (μg/mL) (COL) (µg/mL)
Enter your answer as a number in µg/mL; do not include the unit.

CCCCCCCCCC(=O)N[C@@H](CC[S+](C)[O-])C(=O)N(C)[C@@H]1C(=O)N[C@@H](C)C(=O)N[C@H](C(=O)N[C@@H](C)C(C)=O)Cc2ccc(OCCN)c(c2)-c2cc1ccc2OCCN (stereo partly drawn) | 2

QUERY: Answer with the recorded MIC (μg/mL) (COL) of `CCCCCCCCS(=O)(=O)N[C@@H](CO)C(=O)N(C)[C@@H]1C(=O)N[C@@H](C)C(=O)N[C@H](C(=O)N[C@@H](C)C(C)=O)Cc2ccc(OCCN)c(c2)-c2cc1ccc2OCCN.O=CO` only.
RESULT: 0.38

QUERY: Consider the compound `CCCCCCCCCCNCC(=O)N(C)[C@@H]1C(=O)N[C@@H](C)C(=O)N[C@H](C(=O)N[C@@H](C)C(C)=O)Cc2ccc(OCCN)c(c2)-c2cc1ccc2OCCN.O=CO` . State its measured MIC (μg/mL) (COL).
RESULT: 0.13

QUERY: Respond only with MIC (μg/mL) (COL) recorded for `CCCCCCCCCC(=O)N[C@@H](CO)C(=O)N(C)[C@@H]1C(=O)N[C@@H](C)C(=O)N[C@H](C(=O)N[C@@H](C)C(=O)c2nnn[nH]2)Cc2ccc(OCCN)c(c2)-c2cc1ccc2OCCN.O=CO`
RESULT: 0.25

QUERY: Please indicate MIC (μg/mL) (COL) recorded for `CCCCCCCCCC(=O)N[C@@H](CO)C(=O)N(C)[C@@H]1C(=O)N[C@@H](C)C(=O)N[C@H](C(=O)N[C@@H](C)C(C)=O)Cc2ccc(OCCN)c(c2)-c2cc1ccc2OCCN.O=CO`
RESULT: 0.75

QUERY: Hello, please tell me recorded MIC (μg/mL) (COL) for this one: `CCCCCCCCCC(=O)N[C@@H](CC(N)=O)C(=O)N(C)[C@@H]1C(=O)N[C@@H](C)C(=O)N[C@H](C(=O)N[C@@H](C)C(C)=O)Cc2ccc(OCCN)c(c2)-c2cc1ccc2OCCN.O=CO`
RESULT: 1.5

###

Collected MIC (μg/mL) (COL) values appear next to each entry.
Test system: MRSA COL (NRS100)
TEST_SUMMARY: MIC, broth micro-dilution technique (CLSI)
Format: cell-based, Staphylococcus aureus
TEST_PARAMETERS: Table 2 modified protocol: serial 2-fold dilutions starting from 4 μg/mL; 35° C., 22 hours
# output: bare number, implied unit µg/mL

Example entries begin here.
C[C@@H]1NC(=O)[C@@H](N(C)C(=O)[C@H](CCCCN)NC(=O)c2ccc(-c3ccc(Cl)cc3)cc2)c2ccc(OCCN)c(c2)-c2cc(ccc2OCCN)C[C@@H](C(=O)N[C@@H](C)C(=O)c2c([N+](=O)[O-])cnn2C)NC1=O | 1.5
CCCCCCCCCCS(=O)(=O)N[C@@H](CCCCN)C(=O)N(C)[C@@H]1C(=O)N[C@@H](C)C(=O)N[C@H](C(=O)N[C@@H](C)C(=O)c2nnn[nH]2)Cc2ccc(OCCN)c(c2)-c2cc1ccc2OCCN.O=CO | 0.012

QUERY: Assign MIC (μg/mL) (COL) to the following record: `CCCCCCCCCCS(=O)(=O)N[C@@H](CCCCN)C(=O)N(C)[C@@H]1C(=O)N[C@@H](C)C(=O)N[C@H](C(=O)N[C@@H](C)C(C)=O)Cc2ccc(OCCN)c(c2)-c2cc1ccc2OCCN.O=CO`
RESULT: 0.016
